Please respond with reported IC50, cell viability (CellTiter-Glo, 72 h), SKOvr3 cells for every item in the list.
# assayedSystem: human receptor tyrosine kinase like orphan receptor 1 (ROR1) (human, UniProt Q01973 30-937)
# Sequence (Q01973 30-937): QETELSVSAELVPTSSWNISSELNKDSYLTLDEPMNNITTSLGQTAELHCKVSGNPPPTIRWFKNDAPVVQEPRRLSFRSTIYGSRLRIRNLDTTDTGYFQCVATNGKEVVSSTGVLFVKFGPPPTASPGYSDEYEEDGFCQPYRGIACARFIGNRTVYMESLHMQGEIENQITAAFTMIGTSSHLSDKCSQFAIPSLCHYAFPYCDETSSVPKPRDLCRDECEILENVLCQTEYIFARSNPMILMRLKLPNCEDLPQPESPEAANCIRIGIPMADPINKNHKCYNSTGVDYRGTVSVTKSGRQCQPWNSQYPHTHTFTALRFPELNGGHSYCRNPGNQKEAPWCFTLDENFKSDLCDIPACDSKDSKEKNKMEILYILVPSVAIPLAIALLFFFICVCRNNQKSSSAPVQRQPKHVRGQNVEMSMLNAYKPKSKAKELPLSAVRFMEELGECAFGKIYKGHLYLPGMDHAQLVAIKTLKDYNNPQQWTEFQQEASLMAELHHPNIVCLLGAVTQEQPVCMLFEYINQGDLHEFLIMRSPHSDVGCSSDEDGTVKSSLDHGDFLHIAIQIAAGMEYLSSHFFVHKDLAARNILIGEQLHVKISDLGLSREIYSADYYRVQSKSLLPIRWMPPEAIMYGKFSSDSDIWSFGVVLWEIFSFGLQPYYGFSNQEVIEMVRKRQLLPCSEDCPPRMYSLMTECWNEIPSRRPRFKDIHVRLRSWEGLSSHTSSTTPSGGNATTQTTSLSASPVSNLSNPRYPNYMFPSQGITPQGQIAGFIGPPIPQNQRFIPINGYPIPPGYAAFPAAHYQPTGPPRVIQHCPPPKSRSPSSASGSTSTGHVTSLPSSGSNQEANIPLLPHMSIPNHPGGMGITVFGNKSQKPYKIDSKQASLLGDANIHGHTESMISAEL
# experimentalDetails: cell-based or functional assay

// below: answered binders
binder	result
ADC-F (antibody, human IgG1, kappa, V domains shown, SC-VC-PAB-DM1 bonded via lysine residues of the antibody (chain and positions not stated)) VH: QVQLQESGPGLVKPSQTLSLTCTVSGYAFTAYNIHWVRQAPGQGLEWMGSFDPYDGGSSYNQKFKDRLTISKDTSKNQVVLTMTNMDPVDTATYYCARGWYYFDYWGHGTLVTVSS VL: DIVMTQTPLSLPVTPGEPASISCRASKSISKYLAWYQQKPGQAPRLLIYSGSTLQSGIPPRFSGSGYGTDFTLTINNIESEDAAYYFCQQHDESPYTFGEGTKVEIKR	> 1000 nM
ADC-B (antibody, human IgG1, kappa, V domains shown, SMCC-DM1 bonded via lysine residues of the antibody (chain and positions not stated); SMCC-DM1 bonded via lysine residues of the antibody (chain and positions not stated); DAR 3.0 to 3.20) VH: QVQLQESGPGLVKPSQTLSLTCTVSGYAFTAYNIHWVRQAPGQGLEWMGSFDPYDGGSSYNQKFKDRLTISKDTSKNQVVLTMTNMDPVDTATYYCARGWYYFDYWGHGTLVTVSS VL: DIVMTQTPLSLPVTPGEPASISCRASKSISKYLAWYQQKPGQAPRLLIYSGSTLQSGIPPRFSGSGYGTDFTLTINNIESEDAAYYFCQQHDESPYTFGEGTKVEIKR	78.7 nM
ADC-A (antibody, human IgG1, kappa, V domains shown, MC-VC-PAB-MMAE bonded via cysteine residues of the antibody (chain and positions not stated); MC-VC-PAB-MMAE bonded via cysteine residues of the antibody (chain and positions not stated); DAR 3.89 to 5.09, Antibody-drug conjugate of Ab1; also called Ab1-MC-VC-PAB-MMAE) VH: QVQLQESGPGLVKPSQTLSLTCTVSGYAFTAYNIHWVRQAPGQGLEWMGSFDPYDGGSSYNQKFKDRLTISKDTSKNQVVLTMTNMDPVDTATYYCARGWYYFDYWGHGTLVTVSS VL: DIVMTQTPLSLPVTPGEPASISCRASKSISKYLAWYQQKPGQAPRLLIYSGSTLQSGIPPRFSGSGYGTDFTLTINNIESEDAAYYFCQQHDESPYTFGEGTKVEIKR	62.6 nM

Attention now shifts to the item below.
Asked: Given the entry ADC-C (antibody, human IgG1, kappa, V domains shown, MAL-VC-PAB-DM1 bonded via cysteine residues of the antibody (chain and positions not stated)) VH: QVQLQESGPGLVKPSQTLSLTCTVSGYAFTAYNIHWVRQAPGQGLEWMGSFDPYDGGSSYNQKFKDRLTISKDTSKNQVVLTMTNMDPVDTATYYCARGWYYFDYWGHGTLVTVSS VL: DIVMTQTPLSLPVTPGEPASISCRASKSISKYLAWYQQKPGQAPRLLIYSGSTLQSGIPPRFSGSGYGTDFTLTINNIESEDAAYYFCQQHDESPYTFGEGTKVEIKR , report its measured IC50, cell viability (CellTiter-Glo, 72 h), SKOvr3 cells.
Given back: > 1000 nM

The origin of these recorded values is patent USRE50631.
